Literature-derived Ki for Muscarinic acetylcholine receptor M2 (Homo sapiens) follows.

q: State, for Muscarinic acetylcholine receptor M2 (Homo sapiens), measured Ki of the compound listed here: C[N+]1(C)CCC(C2CC[N+](C)(CCCC(O)(c3ccccc3)c3ccccc3)CC2)CC1 (stereo not drawn)
a: 4370 nM

q: State, for Muscarinic acetylcholine receptor M2 (Homo sapiens), measured Ki of the compound listed here: C1CCC(CN[C@H]2C3C4CC5C6C4CC3C6C52)CC1 (stereo partly drawn)
a: 1010 nM

q: State, for Muscarinic acetylcholine receptor M2 (Homo sapiens), measured Ki of the compound listed here: C[N+]1(CCCC(O)(c2ccccc2)c2ccccc2)CCC(C2CC[N+](C)(CCCC(O)(c3ccccc3)c3ccccc3)CC2)CC1 (stereo not drawn)
a: 363 nM

q: State, for Muscarinic acetylcholine receptor M2 (Homo sapiens), measured Ki of the compound listed here: O=C(CCCCCNC(=O)CC(c1ccccc1)(c1ccccc1)c1ccccc1)NC[C@H]1CCCN(CC2CCCCC2)C1
a: 72 nM

q: State, for Muscarinic acetylcholine receptor M2 (Homo sapiens), measured Ki of the compound listed here: FC(F)(F)c1cc(Oc2nccc3ccsc23)ccc1-c1cccc2nccn12
a: 1700 nM

q: State, for Muscarinic acetylcholine receptor M2 (Homo sapiens), measured Ki of the compound listed here: Cc1cc[n+]([O-])c(C)c1C(=O)N1CCC(C)(N2CCN([C@@H](C)c3ccc(C(F)(F)F)cc3)[C@@H](C)C2)CC1
a: 250 nM

q: State, for Muscarinic acetylcholine receptor M2 (Homo sapiens), measured Ki of the compound listed here: C[C@@H]1CN(C2CCN(C(=O)c3ccccc3N)CC2)CCN1[C@@H](C)c1ccc(S(=O)(=O)c2ccc3c(c2)OCO3)cc1
a: 0.5 nM

q: State, for Muscarinic acetylcholine receptor M2 (Homo sapiens), measured Ki of the compound listed here: Cc1ccc(S(=O)(=O)NCc2ccc(C(=O)NCCN(Cc3ccccc3)C(C)C)cc2)cc1
a: < 1000 nM

q: State, for Muscarinic acetylcholine receptor M2 (Homo sapiens), measured Ki of the compound listed here: CCN(CC)CCOCCOCC1(c2ccccc2)CCCC1
a: 844 nM

q: State, for Muscarinic acetylcholine receptor M2 (Homo sapiens), measured Ki of the compound listed here: O=C(CCN1CCCc2ccccc21)N1CCCC1CO (stereo not drawn)
a: 5130 nM

q: State, for Muscarinic acetylcholine receptor M2 (Homo sapiens), measured Ki of the compound listed here: Cn1ccc(NC(=O)CCN2CCCc3ccccc32)n1
a: 3310 nM

q: State, for Muscarinic acetylcholine receptor M2 (Homo sapiens), measured Ki of the compound listed here: C[C@@H]1CN(C2CCN(C(=O)c3ccccc3O)CC2)CCN1[C@@H](C)c1ccc(S(=O)(=O)c2ccc3c(c2)OCO3)cc1
a: 1 nM

q: State, for Muscarinic acetylcholine receptor M2 (Homo sapiens), measured Ki of the compound listed here: O=C(Nc1ccc(F)cc1-c1ccc(F)c(Cl)c1)OC1CCNCC1
a: 92 nM

---

Target: Muscarinic acetylcholine receptor M2 (Homo sapiens)
Sequence (P08172 whole entry): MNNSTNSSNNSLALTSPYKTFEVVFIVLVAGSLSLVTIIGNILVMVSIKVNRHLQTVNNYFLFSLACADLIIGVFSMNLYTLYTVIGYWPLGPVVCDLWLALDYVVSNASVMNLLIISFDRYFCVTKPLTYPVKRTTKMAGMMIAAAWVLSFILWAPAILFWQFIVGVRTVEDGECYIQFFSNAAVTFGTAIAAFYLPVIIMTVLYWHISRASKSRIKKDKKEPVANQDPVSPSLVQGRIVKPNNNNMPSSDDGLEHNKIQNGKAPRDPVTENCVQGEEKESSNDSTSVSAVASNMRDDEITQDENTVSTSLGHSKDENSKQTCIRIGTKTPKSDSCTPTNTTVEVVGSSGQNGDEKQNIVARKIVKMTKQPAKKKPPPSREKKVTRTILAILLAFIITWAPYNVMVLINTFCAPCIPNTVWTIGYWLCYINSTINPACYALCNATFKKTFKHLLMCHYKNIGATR
Literature-derived Ki for Muscarinic acetylcholine receptor M2 (Homo sapiens) follows.

q: Return reported Ki. Input molecule: Cc1ccc(S(=O)(=O)NCc2ccc(C(=O)NCCN(Cc3ccccc3)C(C)(C)C)cc2)cc1
a: < 1000 nM

q: Return reported Ki. Input molecule: CC(C1=C(CCN(C)C)Cc2ccc(Cl)cc21)c1ccccn1 (stereo not given)
a: 363 nM

q: Return reported Ki. Input molecule: OC(CCCN1CCN(CCCC(O)(c2ccccc2)c2ccccc2)CC1)(c1ccccc1)c1ccccc1
a: 178000 nM

q: Return reported Ki. Input molecule: CC(=O)N[C@@H](CCCCN)C(=O)N[C@@H](C)C(=O)N[C@@H](CCCNC(=N)N)C(=O)NCCN1CCN(CCCCC2CCN(CC(=O)N3c4ccccc4NC(=O)c4ccccc43)CC2)CC1
a: 0.1 nM

q: Return reported Ki. Input molecule: COc1nsnc1OCCOCCOc1nsnc1C1=CCCN(C)C1
a: 39.8 nM

q: Return reported Ki. Input molecule: CN1CCC(OC(=O)N(c2ccccc2)c2ccccc2)C1 (stereo not given)
a: > 1000 nM

q: Return reported Ki. Input molecule: CC(C)NC(=O)c1ccc(CC2CCN(C3CCN(C(=O)c4ccccc4N)CC3)CC2)cc1
a: 78 nM

q: Return reported Ki. Input molecule: C[C@H]1c2c([nH]c3ccc(C(F)(F)F)cc23)C[C@H]2CCN(CCC3(C(=O)O)CCCCC3)C[C@@H]21
a: > 2000 nM

q: Return reported Ki. Input molecule: C[C@@H]1CN(C2CCN(C(=O)c3ccccc3Oc3ccccc3)CC2)CCN1[C@@H](C)c1ccc(S(=O)(=O)c2ccc3c(c2)OCO3)cc1
a: 0.1 nM

q: Return reported Ki. Input molecule: CCN(CC)CCOCNC(=O)C1(c2ccc(Cl)c(Cl)c2)CCCCC1
a: 500 nM

---

Literature-derived pKi for Muscarinic acetylcholine receptor M2 (Homo sapiens, UniProt P08172) follows.
// field semantics: pKi = negative decimal log of concentration (mol/L)

q: State, for Muscarinic acetylcholine receptor M2 (Homo sapiens, UniProt P08172), measured pKi of the compound listed here: COc1ccc([S@@+]([O-])c2ccc(C(C#N)C3CCN(C4CCCCC4)CC3)cc2)cc1 (stereo not given in full)
a: 8.12

q: State, for Muscarinic acetylcholine receptor M2 (Homo sapiens, UniProt P08172), measured pKi of the compound listed here: CN(CCc1ccccc1)[C@H]1C2C3CC4C2C(=O)C2C4C3C21 (stereo not given in full)
a: 5.71

q: State, for Muscarinic acetylcholine receptor M2 (Homo sapiens, UniProt P08172), measured pKi of the compound listed here: CN1CCC(Oc2nc3ccccc3n2-c2ccccc2)C1 (racemic)
a: 6.59

q: State, for Muscarinic acetylcholine receptor M2 (Homo sapiens, UniProt P08172), measured pKi of the compound listed here: CCS(=O)(=O)N1CCC(N2CCC(Oc3ccc(S(=O)(=O)c4ccc5c(c4)OCO5)cc3)CC2)CC1
a: 8.70

q: State, for Muscarinic acetylcholine receptor M2 (Homo sapiens, UniProt P08172), measured pKi of the compound listed here: Cc1ccc(S(=O)(=O)c2ccc(C(C)N3CCN(C4CCCCC4)CC3)cc2)cc1 (stereo not given)
a: 9.10

q: State, for Muscarinic acetylcholine receptor M2 (Homo sapiens, UniProt P08172), measured pKi of the compound listed here: C[N+]1(C)CCC[C@H]1[C@H]1C[S+]([O-])C(c2ccccc2)(c2ccccc2)O1.[I-] (stereo in doubt; (-)-11)
a: 7.38

q: State, for Muscarinic acetylcholine receptor M2 (Homo sapiens, UniProt P08172), measured pKi of the compound listed here: C[C@@H]1CN(C2CCN(C(=O)c3ccc(Cl)cc3Cl)CC2)CCN1[C@@H](C)c1ccc(S(=O)(=O)c2ccc3c(c2)OCO3)cc1
a: 9.52

q: State, for Muscarinic acetylcholine receptor M2 (Homo sapiens, UniProt P08172), measured pKi of the compound listed here: C[N+]1(C)CCC[C@@H]1[C@@H]1C[S+]([O-])C(c2ccccc2)(c2ccccc2)O1.[I-] (stereo in doubt; (+)-11)
a: 6.71

q: State, for Muscarinic acetylcholine receptor M2 (Homo sapiens, UniProt P08172), measured pKi of the compound listed here: CCN(CCCCC1CCN(CC(=O)N2c3ccccc3NC(=O)c3ccccc32)CC1)C(=O)c1ccc(F)cc1
a: 7.49

q: State, for Muscarinic acetylcholine receptor M2 (Homo sapiens, UniProt P08172), measured pKi of the compound listed here: O=C(CNC(=O)[C@@H]1CCCN1C(=O)CC(c1ccccc1)(c1ccccc1)c1ccccc1)NC[C@H]1CCCN(CC2CCCCC2)C1
a: 7.89

q: State, for Muscarinic acetylcholine receptor M2 (Homo sapiens, UniProt P08172), measured pKi of the compound listed here: c1coc([C@@H]2CCCN2)c1
a: 3.97

q: State, for Muscarinic acetylcholine receptor M2 (Homo sapiens, UniProt P08172), measured pKi of the compound listed here: C#CCCCCCN1CCC(OC(=O)Nc2ccc(F)cc2-c2ccc(F)c(Cl)c2)CC1
a: 7.64

q: State, for Muscarinic acetylcholine receptor M2 (Homo sapiens, UniProt P08172), measured pKi of the compound listed here: CC(C)(N)COc1ccc(Nc2ccc(CCNC[C@H](O)c3ccc(O)c4[nH]c(=O)ccc34)cc2)cc1
a: 6.20

q: State, for Muscarinic acetylcholine receptor M2 (Homo sapiens, UniProt P08172), measured pKi of the compound listed here: Cc1cccc(C(=O)N2CCC(N3CCC(Oc4ccc(S(=O)(=O)c5ccc6c(c5)OCO6)cc4)CC3)CC2)c1C
a: 9.40

q: State, for Muscarinic acetylcholine receptor M2 (Homo sapiens, UniProt P08172), measured pKi of the compound listed here: C[C@H]1CN(C2CCN(C(=O)c3c(F)cccc3F)CC2)CCN1[C@@H](C)c1ccc(S(=O)(=O)c2ccc3c(c2)OCO3)cc1
a: 6.45

q: State, for Muscarinic acetylcholine receptor M2 (Homo sapiens, UniProt P08172), measured pKi of the compound listed here: COc1ccc(S(=O)(=O)c2ccc(CC3CCN(C4CCN(C(=O)c5ccc(F)c6ccccc56)CC4)CC3)cc2)cc1
a: 8.89

q: State, for Muscarinic acetylcholine receptor M2 (Homo sapiens, UniProt P08172), measured pKi of the compound listed here: CN(Cc1cccnc1)[C@H]1C2C3CC4C2C(=O)C2C4C3C21 (stereo not given in full)
a: 5.05

q: State, for Muscarinic acetylcholine receptor M2 (Homo sapiens, UniProt P08172), measured pKi of the compound listed here: NCCN1CCN(C(=O)CCCC2CCN(CC(=O)N3c4ccccc4NC(=O)c4ccccc43)CC2)CC1
a: 6.81

q: State, for Muscarinic acetylcholine receptor M2 (Homo sapiens, UniProt P08172), measured pKi of the compound listed here: CCN(CCCCC1CCN(CC(=O)N2c3ccccc3NC(=O)c3ccccc32)CC1)C(=O)c1cccc(I)c1
a: 6.95

q: State, for Muscarinic acetylcholine receptor M2 (Homo sapiens, UniProt P08172), measured pKi of the compound listed here: C=C(c1ccc(S(=O)(=O)c2ccc(OC)cc2)cc1)C1CCN(C2CCN(S(=O)(=O)CCC)CC2)CC1
a: 9.54

q: State, for Muscarinic acetylcholine receptor M2 (Homo sapiens, UniProt P08172), measured pKi of the compound listed here: C=C(c1ccc(S(=O)(=O)c2ccc(OC)cc2)cc1)C1CCN(C2CCN(S(=O)(=O)Cc3ccccc3)CC2)CC1
a: 8.84

q: State, for Muscarinic acetylcholine receptor M2 (Homo sapiens, UniProt P08172), measured pKi of the compound listed here: c1cc2c(cc1CN[C@H]1C3C4CC5C6C4CC3C6C51)OCO2 (stereo not given in full)
a: 5.36

q: State, for Muscarinic acetylcholine receptor M2 (Homo sapiens, UniProt P08172), measured pKi of the compound listed here: N=C(N)NCCC[C@H](N)C(=O)NCCN1CCN(CCCCC2CCN(CC(=O)N3c4ccccc4NC(=O)c4ccccc43)CC2)CC1
a: 9.99

q: State, for Muscarinic acetylcholine receptor M2 (Homo sapiens, UniProt P08172), measured pKi of the compound listed here: O=C(CCN1CCCc2ccccc21)N1CCCC1
a: 6.54

q: State, for Muscarinic acetylcholine receptor M2 (Homo sapiens, UniProt P08172), measured pKi of the compound listed here: C=C(c1ccc(S(=O)(=O)c2ccc(OC)cc2)cc1)C1CCN(C2CCN(C(=O)Cc3ccccc3)CC2)CC1
a: 8.52

q: State, for Muscarinic acetylcholine receptor M2 (Homo sapiens, UniProt P08172), measured pKi of the compound listed here: O=C(CCNC(=O)CC(c1ccccc1)(c1ccccc1)c1ccccc1)NCCC(=O)NC[C@H]1CCCN(CC2CCCCC2)C1
a: 7.36
